Tested on: Klebsiella pneumonia ATCC 13883
Test: Sensitization to erythromycin, novobiocin or rifampicin (permeabilization, FIC)
Type: cell-based, Klebsiella pneumoniae
Details: ATCC13883
Parameter concentration required for bacterial growth inhibition: see the listing below.
Kindly provide the numeric value in µg/mL only, without the unit symbol.

// below: answered compounds
[
  {
    "compound": "C[C@H](CCCN(C)Cc1ccccc1)[C@H]1CC[C@H]2[C@@H]3[C@H](OCCN)C[C@@H]4C[C@H](OCCN)CC[C@]4(C)[C@H]3C[C@H](OCCN)[C@]12C [Compound 1]",
    "assaySystem": "Klebsiella pneumonia ATCC 13883",
    "unitOfMeasurement": "µg/mL",
    "valueObserved": 1.0
  },
  {
    "compound": "C[C@]12CC[C@@H](OCCCN)C[C@H]1C[C@@H](OCCCN)[C@@H]1[C@@H]2C[C@H](OCCCN)[C@]2(C)[C@@H](O)CC[C@@H]12 [Compound 106]",
    "assaySystem": "Klebsiella pneumonia ATCC 13883",
    "unitOfMeasurement": "µg/mL",
    "valueObserved": 3.6
  },
  {
    "compound": "C[C@H](CCCO)[C@H]1CC[C@H]2[C@@H]3[C@H](OCCCN)C[C@@H]4C[C@H](OCCCN)CC[C@]4(C)[C@H]3C[C@H](OCCCN)[C@]12C [Compound 10]",
    "assaySystem": "Klebsiella pneumonia ATCC 13883",
    "unitOfMeasurement": "µg/mL",
    "valueObserved": 0.21
  },
  {
    "compound": "C[C@H](CCCN(C)Cc1ccccc1)[C@H]1CC[C@H]2[C@@H]3[C@H](OCCCN)C[C@@H]4C[C@H](OCCCN)CC[C@]4(C)[C@H]3C[C@H](OCCCN)[C@]12C [Compound 2]",
    "assaySystem": "Klebsiella pneumonia ATCC 13883",
    "unitOfMeasurement": "µg/mL",
    "valueObserved": 0.25
  },
  {
    "compound": "C[C@H](CCCN(C)Cc1ccccc1)[C@H]1CC[C@H]2[C@@H]3[C@H](OCCCNC(=N)N)C[C@@H]4C[C@H](OCCCNC(=N)N)CC[C@]4(C)[C@H]3C[C@H](OCCCNC(=N)N)[C@]12C [Compound 5]",
    "assaySystem": "Klebsiella pneumonia ATCC 13883",
    "unitOfMeasurement": "µg/mL",
    "valueObserved": 0.15
  }
]

Continue with the next compound.
Query :: Supply concentration required for bacterial growth inhibition value. Item: CCCOCCC[C@@H](C)[C@H]1CC[C@H]2[C@@H]3[C@H](OCCCN)C[C@@H]4C[C@H](OCCCN)CC[C@]4(C)[C@H]3C[C@H](OCCCN)[C@]12C [Compound 112]
Result :: 0.1
